Provide the reported pIC50 of each item.
Measured Target: C5aR (Homo sapiens (Human))
Run Description: Chemotaxis assay using U937 cells (C5aR mediated migration)
Test Parameters: read-out: Mig IC50
pIC50: −log10 of the molar value.

Lab book: pIC50 of "Cc1cccc(C)c1-n1nc2c(c1-c1cc(F)c(NC(N)=O)cc1F)CN(CC(C)(C)O)CC2" noted as < 6.30

Lab book: pIC50 of CCC(c1ccccc1)N1CCc2nn(-c3c(C)cccc3OCC(C)C)c(-c3cc(F)c(NC(N)=O)cc3F)c2C1 (stereo not shown) noted as ≥ 8.30

Lab book: pIC50 of "CCc1cccc(CC)c1-n1nc2c(c1-c1ccc(NC(N)=O)c(F)c1)CN(C(C)(C)CC)CC2" noted as 6.30 to 7.30

Lab book: pIC50 of "Cc1cc(NC(N)=O)ccc1-c1c2c(nn1-c1c(C)cccc1OCC(C)C)CCN(c1cc(C(C)(C)C)ccc1C)C2" noted as ≥ 8.30

Lab book: pIC50 of "Cc1cccc(OCC(C)C)c1-n1nc2c(c1-c1ccc(NC(N)=O)c(F)c1)CN(C(C)C)CC2" noted as 6.30 to 7.30

Lab book: pIC50 of "Cc1cccc(C)c1-n1nc2c(c1-c1cc(F)c(NC(=O)CN)cc1F)CN(c1ncc(Cl)cc1Cl)CC2" noted as < 6.30

Lab book: pIC50 of CCc1cccc(CC)c1-n1nc2c(c1-c1cc(F)c(NC(N)=O)cc1F)CN(C(C(=O)OC)c1ccccc1)CC2 (stereo not shown) noted as ≥ 8.30

Lab book: pIC50 of "COc1cccc(C)c1-n1nc2c(c1-c1ccc(NC(=O)NC(C)(C)C)cc1)CN(c1ccccc1C)CC2" noted as < 6.30

Lab book: pIC50 of "Cc1cccc(OCC(C)C)c1-n1nc2c(c1-c1ccc(NC(N)=O)c(F)c1)CN(c1nc(Cl)ns1)CC2" noted as 7.30 to 8.30

Lab book: pIC50 of "Cc1cccc(C)c1-n1nc2c(c1-c1ccc(NC(N)=O)cc1)CN(C(=O)OC(C)(C)C)CC2" noted as 6.30 to 7.30

Lab book: pIC50 of "CCOc1cccc(C)c1-n1nc2c(c1-c1ccc(NC(N)=O)cc1)CN(c1ccccc1C(C)C)CC2" noted as 7.30 to 8.30

Lab book: pIC50 of "Cc1cccc(OCC(C)C)c1-n1nc2c(c1-c1cc(F)c(NC(N)=O)cc1F)CN(c1ncccc1F)CC2" noted as ≥ 8.30

Lab book: pIC50 of "CCc1cccc(CC)c1-n1nc2c(c1-c1cc(F)c(NC(N)=O)cc1F)CN(Cc1ccccc1C(F)(F)F)CC2" noted as ≥ 8.30

Lab book: pIC50 of "Cc1cccc(OCC(C)C)c1-n1nc2c(c1-c1cc(F)c(NC(N)=O)cc1F)CN(c1ccnc(C(C)C)n1)CC2" noted as ≥ 8.30

Lab book: pIC50 of "Cc1cccc(CCC(C)C)c1-n1nc2c(c1-c1ccc(NC(N)=O)cc1)CN(C(=O)OC(C)(C)C)CC2" noted as 6.30 to 7.30

Lab book: pIC50 of CCc1cccc(CC)c1-n1nc2c(c1-c1cc(F)c(NC(N)=O)cc1F)CN(C(CC)c1ccccc1C(F)(F)F)CC2 (stereo not shown) noted as ≥ 8.30

Lab book: pIC50 of "Cc1cccc(OCC(C)C)c1-n1nc2c(c1-c1ccc(NC(N)=O)cc1)CN(c1ccccc1C(C)C)CC2" noted as ≥ 8.30

Lab book: pIC50 of Cc1cccc(OCC(C)C)c1-n1nc2c(c1-c1ccc(NC(N)=O)c(F)c1)CN(C(C)CC(C)C)CC2 (stereo not shown) noted as ≥ 8.30

Lab book: pIC50 of "Cc1cccc(C)c1-n1nc2c(c1-c1cc(F)c(NC(N)=O)cc1F)CN(c1ccc(F)cc1Cl)CC2" noted as ≥ 8.30

Lab book: pIC50 of "Cc1ccc(CN2CCc3nn(-c4c(C)cccc4OCC(C)C)c(-c4ccc(NC(N)=O)cc4)c3C2)c(F)c1" noted as ≥ 8.30

Lab book: pIC50 of Cc1cccc(OCC(C)C)c1-n1nc2c(c1-c1ccc(NC(N)=O)c(F)c1)CN(C(C)C1CCCCC1)CC2 (stereo not shown) noted as ≥ 8.30

Lab book: pIC50 of CCc1cccc(CC)c1-n1nc2c(c1-c1ccc(NC(N)=O)c(F)c1)CN(C(C)CC(C)C)CC2 (stereo not shown) noted as 7.30 to 8.30

Lab book: pIC50 of "Cc1cc(C)c(CN2CCc3nn(-c4c(C)cccc4OCC(C)C)c(-c4ccc(NC(N)=O)cc4)c3C2)c(C)c1" noted as ≥ 8.30

Lab book: pIC50 of "CCc1cccc(CC)c1-n1nc2c(c1-c1cc(F)c(NC(N)=O)cc1OC)CN(c1ncc(Cl)cc1Cl)CC2" noted as ≥ 8.30

Lab book: pIC50 of "Cc1cccc(OCC(C)C)c1-n1nc2c(c1-c1ccc(CO)cc1)CN(c1ccccc1C(C)(C)C)CC2" noted as 6.30 to 7.30

Lab book: pIC50 of "COc1cc(NC(N)=O)c(F)cc1-c1c2c(nn1-c1c(C)cccc1C)CCN(c1ccc(C(F)(F)F)cc1F)C2" noted as ≥ 8.30

Lab book: pIC50 of "COc1cccc(C)c1-n1nc2c(c1-c1ccc(NC(N)=O)cc1)CN(c1ccccc1C)CC2" noted as 6.30 to 7.30

Lab book: pIC50 of "Cc1cccc(OCC(C)C)c1-n1nc2c(c1-c1ccc(NC(N)=O)cc1)CN(c1ccc(Cl)cc1C(F)(F)F)CC2" noted as ≥ 8.30

###

Provide the reported pIC50 of each item.
Measured Target: C5aR (Homo sapiens (Human), UniProt P21730)
Sequence (P21730 whole entry): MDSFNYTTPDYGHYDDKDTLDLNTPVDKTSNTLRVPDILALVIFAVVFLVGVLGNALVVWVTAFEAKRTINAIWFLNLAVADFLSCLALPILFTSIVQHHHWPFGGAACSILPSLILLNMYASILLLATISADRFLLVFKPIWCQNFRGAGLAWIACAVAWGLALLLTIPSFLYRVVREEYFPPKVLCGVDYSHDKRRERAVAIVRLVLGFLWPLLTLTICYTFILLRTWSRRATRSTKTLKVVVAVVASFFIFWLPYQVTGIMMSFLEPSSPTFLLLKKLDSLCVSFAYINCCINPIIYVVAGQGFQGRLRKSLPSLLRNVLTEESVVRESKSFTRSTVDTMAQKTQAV
Run Description: Chemotaxis assay using U937 cells (C5aR mediated migration)
Test Parameters: read-out: Mig IC50
pIC50: −log10 of the molar value.

Lab book: pIC50 of "CCc1cccc(CC)c1-n1nc2c(c1-c1cc(F)c(NC(N)=O)cc1F)CN(C(=O)C(C)C)C(C)(C)C2" noted as ≥ 8.30

Lab book: pIC50 of "Cc1cccc(CCC(C)C)c1-n1nc2c(c1-c1ccc(NC(N)=O)cc1)CN(CC(C)(C)C)CC2" noted as 7.30 to 8.30

Lab book: pIC50 of "CCc1cccc(CC)c1-n1nc2c(c1-c1cc(F)c(NC(N)=O)cc1F)CN(Cc1ccc(C(F)(F)F)cc1)CC2" noted as ≥ 8.30

Lab book: pIC50 of "Cc1cccc(C)c1-n1nc2c(c1-c1cc(F)c(NC(N)=O)cc1F)CN(c1ncc(Cl)cn1)CC2" noted as 7.30 to 8.30

Lab book: pIC50 of "Cc1cccc(C)c1-n1nc2c(c1-c1cc(F)c(NC(N)=O)cc1F)CN(c1ccc(Cl)cc1Cl)CC2" noted as ≥ 8.30

Lab book: pIC50 of CCCC(C)N1CCc2nn(-c3c(C)cccc3OCC(C)C)c(-c3ccc(NC(N)=O)c(F)c3)c2C1 (stereo not shown) noted as ≥ 8.30

Lab book: pIC50 of "Cc1cccc(OCC(C)C)c1-n1nc2c(c1-c1ccc(NC(N)=O)cc1)CN(Cc1c(F)cc(F)cc1F)CC2" noted as 7.30 to 8.30

Lab book: pIC50 of Cc1cccc(C)c1-n1nc2c(c1-c1cc(F)c(NC(N)=O)cc1F)CN(C(c1ccccc1)C(C)(C)O)CC2 (stereo not shown) noted as 7.30 to 8.30

Lab book: pIC50 of "COc1cccc(C)c1-n1nc2c(c1-c1ccc(NC(N)=O)cc1)CN(c1ccccc1C(C)(C)C)CC2" noted as 7.30 to 8.30

Lab book: pIC50 of "Cc1cccc(OCC(C)C)c1-n1nc2c(c1-c1ccc(C(N)=O)cc1)CN(C(=O)OC(C)(C)C)CC2" noted as < 6.30

Lab book: pIC50 of "Cc1cc(C(F)(F)F)ccc1N1CCc2nn(-c3c(C)cccc3OCC(C)C)c(-c3ccc(NC(N)=O)cc3)c2C1" noted as 7.30 to 8.30

Lab book: pIC50 of "CCc1cccc(CC)c1-n1nc2c(c1-c1cc(F)c(NC(N)=O)cc1F)CN(C(=O)C(C)C)CC2" noted as 7.30 to 8.30

Lab book: pIC50 of "Cc1ccc(C(C)(C)C)cc1N1CCc2nn(-c3c(C)cccc3OCC(C)C)c(-c3ccc(N)cc3)c2C1" noted as 7.30 to 8.30

Lab book: pIC50 of "Cc1cccc(OCC(C)C)c1-n1nc2c(c1-c1cc(F)c(NC(N)=O)cc1F)CN(c1ncc(C(C)C)cc1F)CC2" noted as ≥ 8.30

Lab book: pIC50 of "Cc1cccc(C)c1-n1nc2c(c1-c1cc(F)c(NC(N)=O)cc1F)CN(c1ncc(C(F)(F)F)cn1)CC2" noted as ≥ 8.30

Lab book: pIC50 of "CCc1cccc(CC)c1-n1nc2c(c1-c1cc(F)c(NC(N)=O)cc1F)CN(C(C)(C)c1cccc(F)c1)CC2" noted as ≥ 8.30

Lab book: pIC50 of CCc1cccc(CC)c1-n1nc2c(c1-c1cc(F)c(NC(N)=O)cc1F)CN(C(C)c1cccc(F)c1)CC2 (stereo not shown) noted as ≥ 8.30

Lab book: pIC50 of "Cc1cccc(C)c1-n1nc2c(c1-c1cc(F)c(NC(N)=O)cc1F)CN(c1ncc(Cl)cc1C(N)=O)CC2" noted as < 6.30

Lab book: pIC50 of Cc1cccc(OCC(C)C)c1-n1nc2c(c1-c1ccc(NC(N)=O)c(F)c1)CN(C(c1ccccc1)C(F)(F)F)CC2 (stereo not shown) noted as ≥ 8.30

Lab book: pIC50 of "CCc1cccc(CC)c1-n1nc2c(c1-c1cc(F)c(NC(N)=O)cc1F)CN(C(C)(C)c1ccccc1OC)CC2" noted as ≥ 8.30

Lab book: pIC50 of "Cc1cccc(OCC(C)C)c1-n1nc2c(c1-c1ccc(NC(N)=O)cc1)CN(C1CCCCC1)CC2" noted as 6.30 to 7.30

Lab book: pIC50 of "CCc1cccc(CC)c1-n1nc2c(c1-c1cc(F)c(NC(N)=O)cc1F)CN(Cc1ccc(Cl)cc1C(F)(F)F)C(C)(C)C2" noted as ≥ 8.30

Lab book: pIC50 of Cc1cccc(C)c1-n1nc2c(c1-c1cc(F)c(NC(N)=O)cc1F)CN(C(CC(C)(C)O)c1ccccc1)CC2 (stereo not shown) noted as 7.30 to 8.30

Lab book: pIC50 of "Cc1cccc(OCC(C)C)c1-n1nc2c(c1-c1ccc(NC(N)=O)cc1)CN(CCC(C)(C)C)CC2" noted as 6.30 to 7.30

Lab book: pIC50 of "Cc1cc(NC(N)=O)c(F)cc1-c1c2c(nn1-c1c(C)cccc1OCC(C)C)CCN(c1ncc(C(C)C)cc1F)C2" noted as ≥ 8.30

Lab book: pIC50 of "CCc1cccc(CC)c1-n1nc2c(c1-c1cc(F)c(NC(N)=O)cc1F)CN(Cc1ccc(F)cc1C(F)(F)F)CC2" noted as ≥ 8.30

Lab book: pIC50 of "CCc1cccc(CC)c1-n1nc2c(c1-c1cc(F)c(NC(N)=O)cc1F)CN(CC1CCOCC1)C(C)(C)C2" noted as ≥ 8.30

Lab book: pIC50 of "Cc1cccc(C)c1-n1nc2c(c1-c1cc(F)c(O)cc1F)CN(c1ncc(Cl)cc1Cl)CC2" noted as ≥ 8.30
